Source listed as patent US20070244048A1.

ASSAY_SYSTEM: T1, rat NMUR1-ATG (rat, UniProt Q9JJI5 1-425)
T1 sequence (looked up): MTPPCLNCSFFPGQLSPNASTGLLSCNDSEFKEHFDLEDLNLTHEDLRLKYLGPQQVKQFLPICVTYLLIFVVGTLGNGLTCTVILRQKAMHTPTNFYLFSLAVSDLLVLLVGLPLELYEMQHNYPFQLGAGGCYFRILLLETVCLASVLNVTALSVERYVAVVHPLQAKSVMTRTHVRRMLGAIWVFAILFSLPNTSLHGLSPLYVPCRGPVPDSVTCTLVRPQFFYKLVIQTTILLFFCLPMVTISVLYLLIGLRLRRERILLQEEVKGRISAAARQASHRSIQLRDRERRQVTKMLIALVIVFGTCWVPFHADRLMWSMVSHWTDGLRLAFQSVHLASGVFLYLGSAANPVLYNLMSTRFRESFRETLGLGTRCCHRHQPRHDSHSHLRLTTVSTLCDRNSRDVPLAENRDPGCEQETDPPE
PROTOCOL_DETAILS: cell-based or functional assay
*: point of attachment. Cholesteroyl = cholesterol linked to a cysteine residue via the side-chain thiol; Succinimide(1-Et,3-yl) = CCN1C(=O)CC(*)C1=O; Palmitoyl = CCCCCCCCCCCCCCCC(=O)*
MEASUREMENT_TYPE: % Activity (FLIPR)

Consider the following illustrative entries.
>>> value_reported("Palmitoyl-C(Succinimide(1-Et,3-yl))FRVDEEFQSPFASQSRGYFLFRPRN-NH2 [NMU24]")
"80.8%"
>>> value_reported("Ac-C(Cholesteroyl)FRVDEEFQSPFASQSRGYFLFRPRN-NH2 [NMU10]")
"80.1%"

Could you now look at the following binder, please?
Item Ac-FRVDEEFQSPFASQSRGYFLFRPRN-NH2 [NMU2] has what recorded % Activity (FLIPR)?
89.2%
